Test Method Notes: DPPH free radical scavenging assay
Hi there, I'd appreciate the recorded DPPH IC50 for every entry that follows.
One number for each entry, in µg/mL.

Observe how each entry below is paired with its result.
C=Cc1ccc(O)cc1OC | 40
Cc1cnc(O)nc1O | 0.90
O=C1O[C@H]([C@@H](O)CO)C(O)=C1O [AA, ascorbic acid, reference compound] | 0.47
C=Cc1cc(OC)c(O)c(OC)c1 | 16
Cc1ccc(C(C)C)c(O)c1 | 17

For the next question, use this compound.
Return the recorded DPPH IC50 value; entry: CC1=C(O)C(=O)C(O)CO1 (stereo not drawn)
04

###

Measurement Target: COX-2 (Homo sapiens)
Construct: purchased Sigma-Aldrich (local distributor) C0858
Sequence (P35354 18-604): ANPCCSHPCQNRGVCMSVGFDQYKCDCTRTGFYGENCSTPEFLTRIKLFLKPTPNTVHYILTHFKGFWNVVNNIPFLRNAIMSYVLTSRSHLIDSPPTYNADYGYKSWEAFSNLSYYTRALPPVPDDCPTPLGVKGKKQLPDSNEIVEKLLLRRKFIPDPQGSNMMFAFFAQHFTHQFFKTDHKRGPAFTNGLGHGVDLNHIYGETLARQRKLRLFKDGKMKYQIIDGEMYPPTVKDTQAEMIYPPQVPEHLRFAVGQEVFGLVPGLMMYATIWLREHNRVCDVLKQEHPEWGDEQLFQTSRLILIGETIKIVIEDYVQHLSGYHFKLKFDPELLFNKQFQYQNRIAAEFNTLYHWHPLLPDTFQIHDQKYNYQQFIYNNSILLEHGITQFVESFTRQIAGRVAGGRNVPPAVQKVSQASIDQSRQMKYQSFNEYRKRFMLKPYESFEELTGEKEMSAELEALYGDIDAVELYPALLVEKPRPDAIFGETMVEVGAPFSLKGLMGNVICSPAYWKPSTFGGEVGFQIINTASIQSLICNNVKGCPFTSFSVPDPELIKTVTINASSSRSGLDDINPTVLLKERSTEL
Test Method Notes: Cyclooxygenase COX-2 inhibition assay
Format: biochemical
Stated Conditions: 1,000 µg/mL
Experimental Readout: inhibition at 1000 µg/mL (%)
Give bare numbers, in %.

C=Cc1ccc(O)cc1OC | 85.7
Cc1cnc(O)nc1O | 83.1
Cc1ccc(C(C)C)c(O)c1 | 79

For the next question, use this compound.
Return the recorded inhibition at 1000 µg/mL value; entry: CC1=C(O)C(=O)C(O)CO1 (stereo not shown)
80.8

###

Measurement Target: UniProt:P05979
Sequence (P05979 25-600): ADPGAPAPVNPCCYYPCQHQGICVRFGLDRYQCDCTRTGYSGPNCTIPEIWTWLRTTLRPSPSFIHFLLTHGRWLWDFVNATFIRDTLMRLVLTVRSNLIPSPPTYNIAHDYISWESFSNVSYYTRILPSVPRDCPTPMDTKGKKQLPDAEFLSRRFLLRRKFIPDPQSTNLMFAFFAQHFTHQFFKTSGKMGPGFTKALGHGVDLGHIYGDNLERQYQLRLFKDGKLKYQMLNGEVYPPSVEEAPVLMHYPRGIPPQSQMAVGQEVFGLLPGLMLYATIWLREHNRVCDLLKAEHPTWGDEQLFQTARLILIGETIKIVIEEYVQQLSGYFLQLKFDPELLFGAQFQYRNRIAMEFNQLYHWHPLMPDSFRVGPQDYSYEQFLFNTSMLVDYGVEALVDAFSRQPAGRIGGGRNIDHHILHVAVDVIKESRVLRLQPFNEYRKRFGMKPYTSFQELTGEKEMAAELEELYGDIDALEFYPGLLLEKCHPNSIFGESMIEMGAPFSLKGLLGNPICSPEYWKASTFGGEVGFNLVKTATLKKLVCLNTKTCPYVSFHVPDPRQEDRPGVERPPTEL
Test Method Notes: Cyclooxygenase COX-1 inhibition assay
Assay type: biochemical
Stated Conditions: 250 µg/mL
Hi there, I'd appreciate the recorded inhibition at 250 µg/mL for every entry that follows.
Numbers only, in %.

Cc1cnc(O)nc1O | 60.6
C=Cc1ccc(O)cc1OC | 49
C=Cc1cc(OC)c(O)c(OC)c1 | 47.4

Return the recorded inhibition at 250 µg/mL value; entry: CC1=C(O)C(=O)C(O)CO1 (stereo not shown)
54.6

###

Hi there, I'd appreciate the recorded DPPH % inhibition for every entry that follows.
Test Method Notes: DPPH free radical scavenging assay
Stated Conditions: 500 µg/mL

Observe how each entry below is paired with its result.
Cc1ccc(C(C)C)c(O)c1 | 77.08 ± 0.47 %
Cc1cnc(O)nc1O | 87.03 ± 0.23 %
C=Cc1ccc(O)cc1OC | 73.42 ± 0.12 %
O=C1O[C@H]([C@@H](O)CO)C(O)=C1O [AA, ascorbic acid, reference compound] | 93.62 ± 0.17%
C=Cc1cc(OC)c(O)c(OC)c1 | 71.75 ± 0.21 %

For the next question, use this compound.
Return the recorded DPPH % inhibition value; entry: CC1=C(O)C(=O)C(O)CO1 (stereo not drawn)
86.86 ± 0.60 %

###

Test Method Notes: ABTS free radical scavenging assay
Stated Conditions: 125 µg/mL
Experimental Readout: ABTS % inhibition
Remember to follow the number with its unit.

Observe how each entry below is paired with its result.
Cc1ccc(C(C)C)c(O)c1 [Compound 3, 2-isopropyl-5-methylphenol] | 72.54 ± 0.50 %
O=C1O[C@H]([C@@H](O)CO)C(O)=C1O [AA, ascorbic acid, reference compound] | 84.47 ± 0.49%
Cc1cnc(O)nc1O [Compound 1, 5-methylpyrimidine-24,4-diol] | 79.03 ± 0.48 %
C=Cc1cc(OC)c(O)c(OC)c1 [Compound 5, 2,6-dimethoxy-4-vinylphenol] | 63.08 ± 1.04 %
CC1=C(O)C(=O)C(O)CO1 (stereo not drawn) [Compound 2] | 72.64 ± 0.16 %

For the next question, use this compound.
Return the recorded ABTS % inhibition value; entry: C=Cc1ccc(O)cc1OC [Compound 4, 3-methoxy-4-vinylphenol]
61.67 ± 0.89 %

Provenance of the data: paper PMC10937556
